The measured values listed here are drawn from patent US20260201008A1.

Assayed target: human GLP-1 receptor (hGLP1R) (human, UniProt P43220 24-463)
Assay explanation: cell-based or functional assay
Numbered stars: 1 amine (or outer) side, 2 acyl side, 3 side chain; on linkers, the order of the positions; unused ones are H or OH. Square brackets hold non-standard residues; d marks the D form. Side chains are listed from the residue outwards. Ends that are not written are not given here. * marks the point of attachment. C20 diacid = O=C(O)CCCCCCCCCCCCCCCCCCC(=O)*; γGlu = O=C(O)[C@H](CCC(=O)[*:2])N[*:1]; AEEA = NCCOCCOCC(=O)O; Aib = CC(C)(N)C(=O)O
# pEC50 hGLPR1 per entry

[
  {
    "Binder": "HAEGTFTSDVSYLK([AEEA-AEEA-γGlu-C20 diacid])EEA[Aib]LQRFLEHLV-NH2 [SEQ ID NO: 166]",
    "pEC50 hGLPR1": "11.1 -log M"
  },
  {
    "Binder": "H[Aib]EGTFTSDVSYLK([AEEA-AEEA-γGlu-C20 diacid])EEAASQRFLEHLV-NH2 [SEQ ID NO: 75]",
    "pEC50 hGLPR1": "10.6 -log M"
  },
  {
    "Binder": "H[Aib]EGTFTSDVSFLK([AEEA-AEEA-γGlu-C20 diacid])EEAAQQRFLEHLV-NH2 [SEQ ID NO: 83]",
    "pEC50 hGLPR1": "10.5 -log M"
  },
  {
    "Binder": "H[Aib]EGTFTSDVSYLKEEA[Aib]TQRFLEHLV-NH2 (not fully specified (residue 14)) [SEQ ID NO: 162]",
    "pEC50 hGLPR1": "12.2 -log M"
  },
  {
    "Binder": "H[Aib]EGTFTSDVSTLK([AEEA-AEEA-γGlu-C20 diacid])ELAAEQRFLEHLV-NH2 [SEQ ID NO: 78]",
    "pEC50 hGLPR1": "10.3 -log M"
  }
]
